# Tested on: HaCat
# method_summary: Cytotoxic Profiling of Annotated Libraries Using Quantitative High-Throughput Screening (AID 1296008); also: % is scaled to controls: 0 for no effect and ±100 for the full control effect; nearly all actives have a fitted effect of over 60% in size
# experimental_setup: Five cell lines viability, CellTiter-Glo ATP luminescence, 48-72 h; stronger effect = lower value
Results filed as inconclusive are left out.
Parameter max response: see the listing below.
assay_readout: max response (%)

CCCCCN(C)CCC(O)(P(=O)(O)O)P(=O)(O)O : -1.92
CCC1(c2ccccc2)C(=O)N(COC)C(=O)N(COC)C1=O : 3.73
CCc1cc2c(s1)-n1c(C)nnc1CN=C2c1ccccc1Cl : -1.07
COc1ccc2c(c1OC)C(=O)O[C@H]2[C@@H]1c2cc3c(cc2CCN1C)OCO3 : -4.43
CC(C)(C)NCC(O)c1ccccc1Cl (centres undefined) : -8.54
COP(=S)(OC)Oc1ccc(S(=O)(=O)N(C)C)cc1 : -5.18
CCC1(CC)C(=O)C=CNC1=O : -9.12
C[C@]12CC[C@H]3[C@@H](CCC4=CC(=O)CC[C@@H]43)[C@@H]1CC[C@@H]2OC(=O)CCC1CCCCC1 : 2.69
COP(=S)(OC)Oc1cc(Cl)c(Cl)cc1Cl : 4.52
COC1CC(=C(c2cccs2)c2cccs2)C[N+](C)(C)C1 (centres undefined) : 2.01
CCOP(=S)(OCC)Oc1ccc2c(C)c(Cl)c(=O)oc2c1 : 0.247
NC(=O)c1cc([N+](=O)[O-])cc([N+](=O)[O-])c1 : 3.87
CC(=O)NC1CCSC1=O (centres undefined) : -1.96
CC(C)NC(C)C : 1.53

* * *

# Tested on: Zika virus NS2B-NS3 protease
# method_summary: Primary screen GU AMC qHTS for Zika virus inhibitors (AID 1347154);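 also: 0% = no-inhibitor control and -100% = no-enzyme control; nearly all actives have a fitted effect of over 70% in size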
# experimental_setup: Zika NS2B-NS3 unlinked protease, AMC fluorogenic substrate; series mostly up to 54.1 µM
Records with an inconclusive call do not appear. Activity calls are given as the source filed them. The call rests on the fitted dose curve; in most records, active means well fitted inhibition curve with a large enough effect; inconclusive means small, poorly fitted or top-dose-only effect; inactive means flat fitted curve, though single readings scatter.
assay_readout: outcome

Cc1ncsc1CCCl : inactive
CCN[C@@H](C)Cc1cccc(C(F)(F)F)c1 : inactive
C[C@](O)(CS(=O)(=O)c1ccc(F)cc1)C(=O)Nc1ccc(C#N)c(C(F)(F)F)c1 : inactive
C[C@]12Cc3cn[nH]c3C[C@@H]1CC[C@@H]1[C@@H]2CC[C@@]2(C)[C@H]1CC[C@]2(C)O : inactive
CC(=O)NC1CCSC1=O (stereo unspecified) : inactive
O=C(N/N=C/c1ccc([N+](=O)[O-])o1)c1cc([N+](=O)[O-])cc([N+](=O)[O-])c1O : inactive

* * *

# method_summary: qHTS profiling for inhibitors of Plasmodium falciparum proliferation (AID 504749);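 also: 0% = DMSO vehicle and full inhibition = artemisinin control; nearly all actives have a fitted effect of over 60% in size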
# experimental_setup: P. falciparum in erythrocytes, SYBR Green DNA, 72 h; at 28.7 µM (top of the series); parasite line B
Records with an inconclusive call do not appear.
# activity, negative = inhibition >= -10% gives criterion met, anything below gives criterion not met

O=C1Nc2ccc(Cl)cc2C(c2ccccc2Cl)=NC1O (stereo not given) : criterion not met
CN1CCC(O)(c2ccc(F)cc2)C(C(=O)c2ccc(F)cc2)C1 (stereo not given) : criterion met
Nc1ccccc1C(=O)O : criterion met
CCC(C)(C)c1ccc(O)cc1 : criterion met
CN1C(=O)CCS(=O)(=O)C1c1ccc(Cl)cc1 (stereo not given) : criterion not met

* * *

# Tested on: KB-3-1
# method_summary: Cytotoxic Profiling of Annotated Libraries Using Quantitative High-Throughput Screening (AID 1296008); also: % is scaled to controls: 0 for no effect and ±100 for the full control effect; nearly all actives have a fitted effect of over 60% in size
# experimental_setup: Five cell lines viability, CellTiter-Glo ATP luminescence, 48-72 h; stronger effect = lower value
Inconclusive results are not listed.
Parameter max response: see the listing below.
assay_readout: max response (%)

Cc1nnc2n1-c1ccc(Cl)cc1C(c1ccccc1Cl)=NC2 : 1.66
C=CCN1C[C@H](C)N([C@H](c2ccc(C(=O)N(CC)CC)cc2)c2cccc(OC)c2)C[C@H]1C : 2.69
O=C(CCCN1CCC2(CC1)C(=O)NCN2c1ccccc1)c1ccc(F)cc1 : -7.2
O=C(O)/C=C\C(=O)O : -5.31
O=C(O)CCCc1ccc(N(CCCl)CCCl)cc1 : 1.55
O=c1[nH]oc2c1CCNC2 : -7.07
CC(C)c1cccc(C(C)C)c1O : 9.44
COc1c2c(cc3c1OCO3)CCN(C)C2 : 5.77
Nc1ccn(C[C@@H](CO)OCP(=O)(O)O)c(=O)n1 : -9.56
